# tested.on: Neuraminidase Flu B (Influenza B virus, UniProt P03474)
# Sequence (P03474 whole entry): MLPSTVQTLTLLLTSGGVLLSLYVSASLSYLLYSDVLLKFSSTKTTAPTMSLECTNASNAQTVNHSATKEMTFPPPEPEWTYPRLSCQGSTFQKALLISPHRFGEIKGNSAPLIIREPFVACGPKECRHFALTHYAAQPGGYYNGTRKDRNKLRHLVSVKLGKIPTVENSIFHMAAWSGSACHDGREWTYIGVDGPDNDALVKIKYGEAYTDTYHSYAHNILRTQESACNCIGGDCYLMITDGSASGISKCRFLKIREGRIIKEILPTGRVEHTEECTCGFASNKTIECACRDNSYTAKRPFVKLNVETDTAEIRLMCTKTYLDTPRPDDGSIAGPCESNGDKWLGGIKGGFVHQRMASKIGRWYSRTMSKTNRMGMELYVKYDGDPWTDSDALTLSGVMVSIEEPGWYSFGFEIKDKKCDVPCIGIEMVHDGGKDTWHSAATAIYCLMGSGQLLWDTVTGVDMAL
# assay.comment: biochemical
property.label: IC50 (nM)
Number only, in nM; omit the unit.

Q: Name the recorded IC50 of the item CC(=O)N[C@H]1[C@H](N2CCCCC2)C=C(C(=O)O)C[C@@H]1N [Compound 5l] in your answer.
Result: 3

---

Below: a set of entries, each annotated with reported IC50.
# tested.on: Neuraminidase Flu A
# assay.comment: Neuraminidase inhibition in vitro, Flu A
# Assay type: biochemical, influenza virus A
Form entry: value (nM) — number only.

Worked cases, IC50 given:
molecule	units	IC50
CCCN(CC)[C@@H]1C=C(C(=O)O)C[C@H](N)[C@H]1NC(C)=O [Compound 5g]	nM	90
CCCN(CCC)[C@@H]1C=C(C(=O)O)C[C@H](N)[C@H]1NC(C)=O [Compound 5i]	nM	12
CCC(CC)CN(C)[C@@H]1C=C(C(=O)O)C[C@H](N)[C@H]1NC(C)=O [Compound 5d]	nM	120

Now look at this one.
Q: Report measured IC50; entry is CCCN[C@@H]1C=C(C(=O)O)C[C@H](N)[C@H]1NC(C)=O [Compound 12b]
Result: 200
